- testedTarget: RPA WT (RPA70-RPA32-RPA14) (human, UniProt P27694;P15927;P35244 1-616;1-270;1-121)
- Sequence (P27694 whole entry, chain 1 of 3): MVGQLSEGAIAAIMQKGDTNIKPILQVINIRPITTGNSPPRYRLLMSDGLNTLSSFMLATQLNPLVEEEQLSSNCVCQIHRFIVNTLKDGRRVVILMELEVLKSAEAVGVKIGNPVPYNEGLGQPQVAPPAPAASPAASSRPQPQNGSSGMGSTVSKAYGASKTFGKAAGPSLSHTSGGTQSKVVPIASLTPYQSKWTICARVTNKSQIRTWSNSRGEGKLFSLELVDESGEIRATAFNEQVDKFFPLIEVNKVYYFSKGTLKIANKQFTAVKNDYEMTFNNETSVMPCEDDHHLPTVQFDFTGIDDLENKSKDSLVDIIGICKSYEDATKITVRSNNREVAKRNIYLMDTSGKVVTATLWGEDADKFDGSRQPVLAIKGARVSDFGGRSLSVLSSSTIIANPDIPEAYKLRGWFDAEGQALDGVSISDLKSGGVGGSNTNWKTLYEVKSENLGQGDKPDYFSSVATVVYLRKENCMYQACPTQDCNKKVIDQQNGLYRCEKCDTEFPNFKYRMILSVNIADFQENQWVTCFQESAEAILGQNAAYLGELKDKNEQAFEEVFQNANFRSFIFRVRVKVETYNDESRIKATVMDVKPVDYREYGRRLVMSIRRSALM
- Sequence (P15927 whole entry, chain 2 of 3): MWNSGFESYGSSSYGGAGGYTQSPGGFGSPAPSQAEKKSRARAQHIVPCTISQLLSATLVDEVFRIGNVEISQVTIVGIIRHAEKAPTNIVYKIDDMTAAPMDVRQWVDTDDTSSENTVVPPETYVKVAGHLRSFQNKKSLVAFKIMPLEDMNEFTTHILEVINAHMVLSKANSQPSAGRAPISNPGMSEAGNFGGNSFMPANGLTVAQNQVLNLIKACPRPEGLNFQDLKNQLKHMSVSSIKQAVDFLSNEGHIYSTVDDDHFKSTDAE
- Sequence (P35244 whole entry, chain 3 of 3): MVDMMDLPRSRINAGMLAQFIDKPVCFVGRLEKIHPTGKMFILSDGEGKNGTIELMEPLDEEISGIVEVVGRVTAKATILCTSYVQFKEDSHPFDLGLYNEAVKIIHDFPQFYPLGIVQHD
- assayName: fluorescence anisotropy; 200 mM KCl; FA: 200 mM NaCl, KCl or LiCl, 20 mM HEPES pH 7.4, 1 mM DTT, 22-25 C, 375 or 750 pM oligo, Kd,app +/- SEM; EMSA: 20 mM HEPES pH 7.4, 200 mM KCl, 1 nM 32P oligo
- condition: protein: recombinant; tags: 6xHis N-term on RPA70 and RPA14; copies: 1;1;1; label: 5' fluorescein; intramolecular G4 in middle; linear in LiCl
metricName: Kd
Answer with the figure and its unit, nothing else.

**Q:** Would you mind telling me what Kd value was observed for AGTGTGAGTTAGGGTTAGGGTTAGGGTTAGGGTGAGTGTG (structured_DNA) [Tel40 Middle G4] ?
**A:** 0.46 nM
